subject-of-test: atToc132 G-domain bait (Arabidopsis thaliana) (UniProt Q9SLF3)
Sequence (Q9SLF3 456-794): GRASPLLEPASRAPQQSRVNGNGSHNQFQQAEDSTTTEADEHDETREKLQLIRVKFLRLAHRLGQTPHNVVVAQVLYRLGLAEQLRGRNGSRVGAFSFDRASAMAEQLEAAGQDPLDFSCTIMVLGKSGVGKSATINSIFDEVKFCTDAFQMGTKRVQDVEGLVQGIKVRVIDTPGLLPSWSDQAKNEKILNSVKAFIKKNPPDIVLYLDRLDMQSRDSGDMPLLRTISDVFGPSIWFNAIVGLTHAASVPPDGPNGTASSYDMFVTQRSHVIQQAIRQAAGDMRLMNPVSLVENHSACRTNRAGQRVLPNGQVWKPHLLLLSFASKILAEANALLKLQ
test-method-notes: two-hybrid; pairwise split-ubiquitin yeast two-hybrid of isolated NubG-preys with Toc159G, Toc132G or Toc132AG bait in NMY51; growth on SD-LWHA (3-AT) and quantitative β-Gal assay, activity relative to a reference bait set to 100%
Listed here: items and their measured % increase in strength of interaction (β-Gal) with 132G against 159G.
Your answer should be a plain number; it is taken to be in %.

stdin: % increase in strength of interaction (β-Gal) with 132G against 159G lookup needed for Fe superoxide dismutase 1 (natural protein) MAASSAVTANYVLKPPPFALDALEPHMSKQTLEFHWGKHHRAYVDNLKKQVLGTELEGKPLEHIIHSTYNNGDLLPAFNNAAQAWNHEFFWESMKPGGGGKPSGELLALLERDFTSYEKFYEEFNAAAATQFGAGWAWLAYSNEKLKVVKTPNAVNPLVLGSFPLLTIDVWEHAYYLDFQNRRPDYIKTFMTNLVSWEAVSARLEAAKAASA , thanks.
stdout: 99.5

stdin: Need % increase in strength of interaction (β-Gal) with 132G against 159G, item Protein LURP-one-related 15 Protein (natural protein) MEQPYVYAYPQGSGPSGAPTPQAGGVVVDPKYCAPYPIDMAIVRKMMSLTDGNFVITDVNGNLLFKVKEPVFGLHDKRVLLDGSGTPVVTLREKMVSMHDRWQVFRGGSTDQRDLLYTVKRSSMLQLKTKLDVFLGHNKDEKRCDFRVKGSWLERSCVVYAGESDAIVAQMHRKHTVQSVFLGKDNFSVTVYPNVDYAFIASLVVILDDVNREDRAA
stdout: 29.9

stdin: Returns the measured % increase in strength of interaction (β-Gal) with 132G against 159G for the input binder. Input: Glutathione S-transferase PHI 2 (natural protein) MAGIKVFGHPASIATRRVLIALHEKNLDFELVHVELKDGEHKKEPFLSRNPFGQVPAFEDGDLKLFESRAITQYIAHRYENQGTNLLQTDSKNISQYAIMAIGMQVEDHQFDPVASKLAFEQIFKSIYGLTTDEAVVAEEEAKLAKVLDVYEARLKEFKYLAGETFTLTDLHHIPAIQYLLGTPTKKLFTERPRVNEWVAEITKRPASEKVQ
stdout: 52

stdin: Which % increase in strength of interaction (β-Gal) with 132G against 159G is reported for this binder? Photosystem II subunit T (natural protein) MASMTMTATFFPAVAKVPSATGGRRLSVVRASTSDNTPSLEVKEQSSTTMRRDLMFTAAAAAVCSLAKVAMAEEEEPKRGTEAAKKKYAQVCVTMPTAKICRY
stdout: 28.9

stdin: Query (binder): GLNB1-like protein (natural protein) MAASMTKPISITSLGFYSDRKNIAFSDCISICSGFRHSRPSCLDLVTKSPSNNSRVLPVVSAQISSDYIPDSKFYKVEAIVRPWRIQQVSSALLKIGIRGVTVSDVRGFGAQGGSTERHGGSEFSEDKFVAKVKMEIVVKKDQVESVINTIIEGARTGEIGDGKIFVLPVSDVIRVRTGERGEKAEKMTGDMLSPS ; field requested: % increase in strength of interaction (β-Gal) with 132G against 159G
stdout: 39.8

Please look at the following binder next.
stdin: Form field: reported % increase in strength of interaction (β-Gal) with 132G against 159G of Translationally controlled tumor protein (natural protein) MLVYQDLLTGDELLSDSFPYKEIENGILWEVEGKWVTVGAVDVNIGANPSAEEGGEDEGVDDSTQKVVDIVDTFRLQEQPTYDKKGFIAYIKKYIKLLTPKLSEEDQAVFKKGIEGATKFLLPRLSDFQFFVGEGMHDDSTLVFAYYKEGSTNPTFLYFAHGLKEVKC
stdout: 41
